Tested on: UACC-62 melanoma
Assay: NCI-60 one-dose screen, 48 h (100 = growth as untreated, 0 = no growth, -100 = all killed)
Settings: 10 µM unless noted
About 83,000 compounds went through this panel and 20% of them were active in at least one assay; those are over-represented in the sample as a whole.
MEASURED ENDPOINT: growth (%)
Lab book: enter the figure in %, no units written.

Before answering, review these 3 worked examples.
c1ccc2cc(-c3n(Cc4ccc5ccccc5n4)c4ccccc4[n+]3Cc3ccc4ccccc4n3)ccc2c1 | -60.6
CC1SC(c2cccc(Oc3ccccc3)c2)N(CCc2cccs2)C1=O (centres undefined) | -71.1
CC(=O)Nc1ccc(S(=O)(=O)N/N=C\c2ccc(Cl)c(Cl)c2)cc1 | 99.2

Input line: # lookup: growth of COc1cc(C(=O)/C=C/c2c(-c3cccs3)nc3sccn23)cc(OC)c1OC
Output line: -56.4

Input line: Param item: CCCN(CCC)c1ccc(/C=C/c2ccc3cc(OCC)ccc3n2)cc1
Output line: 86.6
